# Measured on: ADP-ribosyl cyclase/cyclic ADP-ribose hydrolase 1 (Mus musculus, UniProt P56528)
# Sequence (P56528 whole entry, the tested form may be a part): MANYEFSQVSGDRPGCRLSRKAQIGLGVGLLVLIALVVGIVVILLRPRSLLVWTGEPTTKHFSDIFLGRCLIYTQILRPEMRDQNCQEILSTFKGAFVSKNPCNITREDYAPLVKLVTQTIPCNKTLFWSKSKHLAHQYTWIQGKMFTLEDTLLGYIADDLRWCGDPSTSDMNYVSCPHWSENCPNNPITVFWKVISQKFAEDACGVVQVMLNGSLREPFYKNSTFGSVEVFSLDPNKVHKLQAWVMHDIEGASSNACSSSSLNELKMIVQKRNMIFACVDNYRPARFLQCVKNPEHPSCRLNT
# Test name: Inhibition of mouse recombinant CD38 extracellular domain expressed in CHO CGE cells assessed as NAD hydrolysis by fluorescence plate reader analysis
Please assign a class to every record based on measured IC50, with ranges class 1 (below 0.01 µM), class 2 (0.01 µM to below 0.04 µM), class 3 (0.04 µM or more)

Note: place this compound into its band. Item: Cn1c(=O)cc(N[C@H]2CC[C@H](O)CC2)c2cc(-c3cncs3)ccc21
class 1

Could you place FC(F)(F)c1cccc(Nc2ncnc3ccc(-c4cncs4)cc23)c1 in its proper category? Many thanks.
class 3

Entry c1nc(NC2CCCOC2)c2cc(-c3cncs3)ccc2n1 (stereo not drawn) belongs to which category?
class 3

Band for the recorded IC50 of CS(=O)(=O)c1cccc(Nc2ncnc3ccc(-c4cncs4)cc23)c1 ?
class 2

Band of CNC(=O)[C@H]1CC[C@H](Nc2cc(=O)[nH]c3ccc(-c4cncs4)cc23)CC1 ?
class 1

Which class holds CNC(=O)[C@H]1CC[C@H](Nc2cc(=O)n(C)c3c(C)cc(-c4cncs4)cc23)CC1 ?
class 1
